Value source: PubChem BioAssay AID651581

Target: Endothelial PAS domain-containing protein 1 (Homo sapiens)
Test: HIF-2a and HIF-1a reporter inhibition panel, dose response, selectivity assay for HIF-2a inhibitor project, cell-based, luminescence (AID 651581)
Details: HIF-2a PANC, mean of runs
The source made the active and inactive calls. The rule behind the calls is not given here.
Entry note: the call must match one of YES (active), NO (inactive)

Dear colleague, could you share the recorded outcome for O=C(Nc1ccc(N2CCOCC2)cc1)c1cnccn1 when you have a moment?
NO

Check the results log: what was the call for O=C1C=CC(=O)N1c1ccccc1N1C(=O)C=CC1=O ?
NO

Record lookup: outcome of this test for CC(C)C[C@@H](N)c1nnc(SCC(=O)c2ccc(Cl)cc2)o1 ?
YES

Test call, this molecule: Cc1nc(SCc2ccc(C(=O)O)cc2)nc2c1CCCC2
NO

Fill in: this test's call for Cc1ccc(C)c(-c2nc3cc(N)ccc3o2)c1 is ___
YES

// outcome(item) with item = COc1cccc(C(=O)C(C#N)=C(SC)SC)c1
NO

Kindly provide the recorded test outcome for the following molecule: COc1ccc(OC)c(S(=O)(=O)ON2C(=O)c3ccccc3C2=O)c1
NO

Please state the recorded outcome for this molecule: N#Cc1c(NC(=O)CCCC(=O)O)sc2c1CCCCC2
YES

Per the records of this test, what outcome belongs to O=C(CSc1nnc(-c2ccc(Br)cc2)o1)Nc1cccc(C(=O)O)c1 ?
NO

For CCOC(=O)c1cc(-c2csc(-c3ccc(C(C)(C)C)cc3)n2)on1 , which call appears in the assay record?
NO

// return assay outcome for C(=NNc1ccc2ccccc2n1)c1ccccn1
NO

I would be grateful if you could indicate the recorded call for COc1ccc(-c2cnc3c(NC=O)cc(-c4cccc(NS(C)(=O)=O)c4)cn23)cc1OC .
YES

Write down the call the test reported for this molecule. Item: COc1cc(/C=N/O)ccc1OCc1ccc(C(=O)O)cc1
NO

// outcome(item) with item = Cc1ccc(C(C)C)c(OCc2ccc(-c3nnco3)cc2)c1
NO

Returns: the outcome recorded for COC(=O)COc1ccc(-c2nccc(-c3ccccn3)n2)cc1 in this assay.
YES

Tell me the assay call for O=C(Nc1ccc(F)cc1)c1nc(S(=O)(=O)Cc2ccccc2)ncc1Cl please.
NO

Query: recorded result category for O=C(Nc1ccccc1)c1nnsc1S(=O)(=O)c1ccc(Cl)cc1 in this test
NO

Recorded test outcome, item COCCn1c(C)cc(C(=O)CSc2nnc(C)s2)c1C
YES

Which result was noted for this molecule in the test: Cc1nc(SCCC(=O)O)c2cc(-c3ccccc3)sc2n1
NO

// param item: Cc1c(CCC(=O)O)c(=O)oc2cc(OCc3ccccc3Br)ccc12 ; yields the recorded call
YES

Could you check what this test reported for Cc1nc2cc(-c3cccc(F)c3)nn2c(C)c1CCC(=O)N1CCC2(CC1)OCCO2 ?
YES

Returns: the outcome recorded for FC(F)(F)c1cnc(NNC(=S)Nc2ccccc2)c(Cl)c1 in this assay.
YES

Outcome? Cc1nc2cc(-c3cccc(F)c3)nn2c(C)c1CCC(=O)NC(C)c1ccc2c(c1)OCCO2 (centres undefined)
NO

What did the test return for Cc1csc(NC(=O)c2cn3ccccc3n2)n1 ?
YES
